Documented Duration of cooling, Eyelids/Ocular Surface across a set of compounds
test system: eyelids/ocular surface; test: Cooling after wiping closed eyelids with a towelette; type: in vivo, human; settings: eye wipes, 1 mg/ml in 5%-95% v/v ethanol-distilled water
Please state the figure in min; there is no need to write the unit.

Quick check: Duration of cooling, Eyelids/Ocular Surface on eyelids/ocular surface, item CCCCOC(=O)CNC(=O)[C@@H]1C[C@H](C)CC[C@H]1C(C)C ?
35

----------
Documented Log P across a set of molecules
assay: Log P of tested compounds; format: physicochemical
Number only, no unit.

Could you share which Log P value was measured for COc1ccc(NC(=O)[C@@H]2C[C@H](C)CC[C@H]2C(C)C)cc1 [WS-12, reference compound] ?
5.3

Same for CCOC(=O)C(C)N(C)C(=O)C1CC(C)CCC1C(C)C (stereo not shown)
3.2

Same for CCOC(=O)CCNC(=O)[C@@H]1C[C@H](C)CC[C@H]1C(C)C
3.1

Same for CCOC(=O)CN(C)C(=O)[C@@H]1C[C@H](C)CC[C@H]1C(C)C
2.9

Same for CCCOC(=O)CNC(=O)[C@@H]1C[C@H](C)CC[C@H]1C(C)C
3.4

Same for CCOC(=O)[C@H](CO)NC(=O)[C@@H]1C[C@H](C)CC[C@H]1C(C)C
1.8

Same for CC(C)[C@@H]1CC[C@@H](C)C[C@H]1C(=O)NC(C)(C)C
4.5

Same for CCOC(=O)[C@H](C)NC(=O)[C@@H]1C[C@H](C)CC[C@H]1C(C)C
3.1

Same for COC(=O)CCC(NC(=O)C1CC(C)CCC1C(C)C)C(=O)OC (stereo not shown)
2.2

Same for CCOC(=O)CNC(=O)[C@@H]1C[C@H](C)CC[C@H]1C(C)C [Gly Et Ester (WS-5), reference compound]
2.9

Same for CCCOC(=O)[C@@H](C)NC(=O)[C@@H]1C[C@H](C)CC[C@H]1C(C)C
3.8

Same for COC(=O)[C@H](NC(=O)[C@@H]1C[C@H](C)CC[C@H]1C(C)C)C(C)C
4.2

Same for CC(C)[C@@H]1CC[C@@H](C)C[C@H]1C(=O)N[C@@H](CCCCNC(=O)OCc1ccccc1)C(=O)OC(C)(C)C [L-Lys(Z) t-Bu Ester]
5.9

Same for CCCCOC(=O)[C@@H](C)NC(=O)[C@@H]1C[C@H](C)CC[C@H]1C(C)C
4.4

Same for COC(=O)[C@H](C)NC(=O)[C@@H]1C[C@H](C)CC[C@H]1C(C)C
2.8

Same for CC1CCC(C(C)C)C(C(=O)NC2CCOC2=O)C1 (mixture of isomers) [racemic Hsl]
2.5

----------
system: eyelids/ocular surface; experiment: Cooling after wiping closed eyelids with a towelette; format: in vivo, human; settings: eye wipes, 1 mg/ml in 5%-95% v/v ethanol-distilled water
measurementName: Duration of cooling, Eyelids/Ocular Surface (min)
Please state the figure in min; there is no need to write the unit.

Examples with their reported Duration of cooling, Eyelids/Ocular Surface follow.
chemicalString: CCOC(=O)[C@H](C)NC(=O)[C@@H]1C[C@H](C)CC[C@H]1C(C)C
experimentalResult: 0

chemicalString: CCCCOC(=O)[C@@H](C)NC(=O)[C@@H]1C[C@H](C)CC[C@H]1C(C)C
experimentalResult: 40

chemicalString: CCCOC(=O)CNC(=O)[C@@H]1C[C@H](C)CC[C@H]1C(C)C
experimentalResult: 54

chemicalString: CC(C)OC(=O)CNC(=O)[C@@H]1C[C@H](C)CC[C@H]1C(C)C
experimentalResult: 300

chemicalString: CCOC(=O)[C@@H](C)NC(=O)[C@@H]1C[C@H](C)CC[C@H]1C(C)C
experimentalResult: 180

Quick check: Duration of cooling, Eyelids/Ocular Surface on eyelids/ocular surface, item COC(=O)[C@@H](C)NC(=O)[C@@H]1C[C@H](C)CC[C@H]1C(C)C ?
120
